- Tested on: BHK-21
- protocol.description: Cytotoxicity against BHK21 cells assessed as reduction in cell viability after 48 hrs by SRB assay
- Format: cell-based
- experimental.setup: Mesocricetus auratus, BHK-21, 48 h
pIC50: −log10 of the molar value.
# key: entry, value: pIC50

[ask] For `CC(=O)c1ccc(C2=Nn3c(nnc3-c3cc4ccccc4oc3=O)SC2)cc1` , what is its reported pIC50?
[reply] 5.24 to 6.00

[ask] For `O=c1oc2ccccc2cc1-c1nnc2n1N=C(c1ccc(-c3ccccc3)cc1)CS2` , what is its reported pIC50?
[reply] 5.24 to 6.00

[ask] For `O=c1oc2ccccc2cc1C1=Nn2c(nnc2-c2cc3ccccc3oc2=O)SC1` , what is its reported pIC50?
[reply] 5.24 to 6.00

[ask] For `COc1ccc(C2=Nn3c(nnc3-c3cc4ccccc4oc3=O)SC2)cc1` , what is its reported pIC50?
[reply] 5.24 to 6.00

[ask] For `O=c1oc2ccccc2cc1-c1nnc2n1N=C(c1ccc(Cl)c(Cl)c1)CS2` , what is its reported pIC50?
[reply] 5.86

[ask] For `O=c1oc2ccccc2cc1-c1nnc2n1N=C(c1ccc(Cl)cc1)CS2` , what is its reported pIC50?
[reply] 5.24 to 6.00

---

- Tested on: HeLa
- protocol.description: Cytotoxicity against human HeLa cells assessed as reduction in cell viability by SRB assay
- Format: functional, cell-based
pIC50: −log10 of the molar value.
observed.property: pIC50

>>> value_reported("CO/N=C1\\C(=O)N(CCOCCOc2ccc3c(C)cc(=O)oc3c2)c2ccccc21")
"4.30 to 4.99"
>>> value_reported("Cc1cc(=O)oc2cc(OCCOCCN3C(=O)C(=O)c4cc(F)ccc43)ccc12")
"4.30 to 4.99"
>>> value_reported("Cc1ccc2c(c1)/C(=N/O)C(=O)N2CCOCCOc1ccc2c(C)cc(=O)oc2c1")
"4.30 to 4.99"
>>> value_reported("Cc1cc(=O)oc2cc(OCCOCCN3C(=O)/C(=N\\O)c4cc(Cl)ccc43)ccc12")
"4.30 to 4.99"
>>> value_reported("CO/N=C1\\C(=O)N(CCOCCOc2ccc3c(C)cc(=O)oc3c2)c2ccc(C)cc21")
"4.30 to 4.99"

Lab note: next compound to report on.
[ask] For `Cc1cc(=O)oc2cc(OCCOCCN3C(=O)/C(=N\O)c4cc(F)ccc43)ccc12` , what is its reported pIC50?
[reply] 4.30 to 4.99

---

# key: entry, value: IC50
- Tested on: A549
- protocol.description: Cytotoxicity against human A549 cells assessed as reduction in cell viability after 24 hrs by MTT assay
- Type: functional, cell-based
- experimental.setup: A549, 24 h

// worked examples, IC50 included
>>> value_reported("O=c1oc2ccccc2cc1-c1cc(-c2ccc(Br)cc2)nc(Cc2ccc(F)cc2)n1")
"2150 to 28600 nM"
>>> value_reported("Cc1ccc(-c2cc(-c3cc4ccccc4oc3=O)nc(Cc3ccc(F)cc3)n2)cc1")
"2150 to 28600 nM"
>>> value_reported("CCN(CC)c1ccc2cc(C(=O)NNC(=O)Cn3nc(Cc4cccc(Br)c4)[nH]c3=O)c(=O)oc2c1")
"3.1 to 37.9 µg/mL"
>>> value_reported("COc1ccccc1-c1cc(-c2cc3ccccc3oc2=O)nc(Cc2ccc(F)cc2)n1")
"2150 to 28600 nM"
>>> value_reported("O=C(Cn1nc(Cc2ccc(Cl)cc2)[nH]c1=O)NNC(=O)c1cc2cc(Cl)cc(Cl)c2oc1=O")
"3.1 to 37.9 µg/mL"

[ask] Recall the recorded IC50 for `O=c1oc2ccccc2cc1-c1cc(-c2ccc(Cl)cc2)nc(Cc2ccc(F)cc2)n1` with A549 and state it.
[reply] 2510 nM

[ask] Recall the recorded IC50 for `O=c1oc2ccccc2cc1-c1cc(-c2ccccc2Cl)nc(Cc2ccc(F)cc2)n1` with A549 and state it.
[reply] 2150 to 28600 nM

[ask] Recall the recorded IC50 for `Cc1ccccc1-c1cc(-c2cc3ccccc3oc2=O)nc(Cc2ccc(F)cc2)n1` with A549 and state it.
[reply] 2150 to 28600 nM

[ask] Recall the recorded IC50 for `CC(C)=CC[C@@H](OCc1ccc(C(=O)/N=C/c2c(Cl)c3ccccc3oc2=O)cc1)C1=CC(=O)c2c(O)ccc(O)c2C1=O` with A549 and state it.
[reply] 3250 to 10600 nM
